Reference source: PubChem BioAssay AID1159580

# test-summary: chemical genetic growth profiling, strain panel (AID 1159580);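 also: tested at 20 µM; growth read once vehicle control cultures reached saturation at 30 °C; 1 = growth at the plate median or of vehicle wells; lower values mean less growth of the strain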
# condition: S. cerevisiae deletion strains, growth OD, locus YNL175C, strain NOP13, stronger effect = lower value
Out of some 5,500 compounds screened, about 2,000 (36%) were called active. About 18% were inconclusive and are not listed. This is one part of the list.
value-kind: normalized growth
Note: the reply should be a number with no unit written.

Below, each entry is followed by its recorded normalized growth result.
>>> measured("CN1CCN(C2=Nc3ccccc3Oc3ccc(Cl)cc32)CC1")
0.959
>>> measured("CC12CC3CC(C)(C1)CC(N)(C3)C2")
0.994
>>> measured("O=c1cc(-c2ccc(O)cc2)oc2cc(O)cc(O)c12")
1.01
>>> measured("CCO/C([O-])=N/c1c[n+](N2CCOCC2)no1")
1
>>> measured("CCS(=O)(=O)Nc1cccc(C(=C2CCCCC2)c2cnc[nH]2)c1")
1
>>> measured("CCN1CCC[C@H]1CNC(=O)c1c(OC)ccc(I)c1O")
1
>>> measured("O=c1cc(-c2ccc(O)c(O)c2)oc2cc(O)cc(O)c12")
1.01
>>> measured("CCCCN1CCC(COC(=O)c2cc(Cl)c(N)c3c2OCCO3)CC1")
1

Kindly note the recorded normalized growth for Nc1ccncc1 , which is 1

Please fill in: normalized growth reported for O=C1NC(c2cccc([N+](=O)[O-])c2)=CCN1c1ccccc1O = 1

Record NC(N)=NC(=O)Cc1c(Cl)cccc1Cl . Reported normalized growth: 0.996

Form: compound = CN(C)CCC(c1ccc(Br)cc1)c1ccccn1 (configuration not stated) ; normalized growth = 1

---

# test-summary: chemical genetic growth profiling, strain panel (AID 1159580);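 also: tested at 20 µM; growth read once vehicle control cultures reached saturation at 30 °C; 1 = growth at the plate median or of vehicle wells; lower values mean less growth of the strain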
# condition: S. cerevisiae deletion strains, growth OD, locus YOL012C, strain htz1
Screen size: about 5,500 compounds; about 2,000 (36%) were called active. About 18% were inconclusive and are not listed. This is one part of the list.
value-kind: normalized growth
The response must contain the number and no unit.

Example results:
>>> measured("Cc1cc(O)c(C=O)c2c1C(=O)Oc1c(C)c(O)c3c(c1O2)C(O)OC3=O (centres undefined)")
0.674
>>> measured("Cc1cc(O)c(C=O)c2c1C(=O)Oc1c(COC(=O)/C=C/C(=O)O)c(O)c(C(=O)O)c(C)c1O2")
0.751

Note to self: normalized growth recorded for COc1cc2c(cc1-c1cc3cc4ccoc4cc3oc1=O)OCO2 was 1.22

Field normalized growth (entry C[C@H](N)[C@H](O)c1ccccc1 ) reads 1.73

normalized growth for COc1c2ccoc2nc2c(OC)c(OCC(O)C(C)(C)O)ccc12 (centres undefined) is 1.86

The reported value for CC1(C)C(=O)C=C[C@@]2(C)C1CC(=O)[C@@]1(C)C3=CC(=O)O[C@@H](c4ccoc4)[C@]3(C)CCC12 (some centres undefined) in terms of normalized growth is 1.33

Measured normalized growth, CN1CC(CNC(=O)OCc2ccccc2)CC2c3cccc4c3c(cn4C)CC21 (centres undefined) : 0.968

Form: molecule = COC(=O)CCC(=O)O[C@H]1CCC2(C)C(CCC3C2C(=O)[C@@H](O)C2(C)C3CC3OC4(CCC(C)CO4)[C@@H](C)C32)C1 (some centres undefined) ; normalized growth = 1.03

Lookup result for COc1cc(C(=O)O)c2c(c1C)OC(=O)c1c(C)cc(O)c(C=O)c1O2 ; measured normalized growth: 0.7
